- TESTED_ON: BCL2 G101V (Homo sapiens, UniProt P10415, G101V)
- PROCEDURE_SUMMARY: TR-FRET competitive binding assay, BCL2 G101V
- TEST_CONDITIONS: BCL2 G101V; Ki determined from IC50; read-out: TR_FRET EKI_Bcl2 G101V
READOUT_NAME: pKi
Expect pKi as a plain number equal to -log10 of the molar concentration.

[ask] # input compound: Cc1c(N(C(=O)c2cc(-c3cc4c(cc3C(=O)N3Cc5ccccc5C[C@H]3CN3CCCCC3)CN(C(=O)Cc3ccc(OCCN(C)CCF)cc3)CC4)n(C)c2C)c2ccc(O)cc2)cc(C#N)n1C [Example 116] ; wanted: its pKi
[reply] 9.40

[ask] # input compound: Cc1c(N(C(=O)c2cc(-c3cc4c(cc3C(=O)N3Cc5ccccc5C[C@H]3C)CN(C(=O)Cc3ccc(OCCN5CCO[C@H](C)C5)cc3)CC4)n(C)c2C)c2ccc(O)cc2)cc(C#N)n1C [Example 56] ; wanted: its pKi
[reply] 9.70

[ask] # input compound: Cc1c(C(=O)N(c2ccc(O)cc2)c2cnn(C)c2)cc(-c2cc3c(cc2C(=O)N2Cc4ccccc4C[C@H]2C)CN(C(=O)Cc2ccc(OCCN4CCOCC4)cc2F)CC3)n1C [Example 233] ; wanted: its pKi
[reply] 9.49

[ask] # input compound: Cc1c(C(=O)N(c2ccccc2)c2cnn(C(F)F)c2)cc(-c2cc3c(cc2C(=O)N2Cc4ccccc4C[C@H]2C)CN(C(=O)Cc2ccc(C#CCN4CCOCC4)cc2)CC3)n1C [Example 212] ; wanted: its pKi
[reply] 8.77

[ask] # input compound: COc1ccc(N(C(=O)c2cc(-c3cc4c(cc3C(=O)N3Cc5ccccc5C[C@H]3CN3CCCCC3)CN(C(=O)Cc3ccc(OCCN5CCOCC5)cc3F)CC4)n(C)c2C)c2ccc(O)cc2)cn1 [Example 165] ; wanted: its pKi
[reply] 9.10

====

- TESTED_ON: BCL2 D103Y (Homo sapiens, UniProt P10415, D103Y)
- PROCEDURE_SUMMARY: TR-FRET competitive binding assay, BCL2 D103Y
- TEST_CONDITIONS: Ki determined from IC50, read-out: TR_FRET EKI_Bcl2 D103Y
Please respond with reported pKi for every item in the list.
Expect pKi as a plain number equal to -log10 of the molar concentration.

[ask] # input compound: Cc1c(C(=O)N(c2ccc(O)cc2)c2cc(C#N)n(C(F)F)c2C)cc(-c2cc3c(cc2C(=O)N2Cc4ccccc4C[C@H]2C)CN(C(=O)Cc2ccc(OCCN4CCOCC4)cc2F)CC3)n1C [Example 94] ; wanted: its pKi
[reply] 9.18

[ask] # input compound: Cc1c(N(C(=O)c2cc(-c3cc4c(cc3C(=O)N3Cc5ccccc5C[C@H]3C)CN(C(=O)C3CCN(c5ccccc5)C3=O)CC4)n(C)c2C)c2ccc(O)cc2)cc(C#N)n1C (stereo partly shown) [Example 29] ; wanted: its pKi
[reply] 9.01

[ask] # input compound: Cc1c(C(=O)N(c2ccc(O)cc2)c2cc(C#N)n(C(F)F)c2C)cc(-c2cc3c(cc2C(=O)N2Cc4ccccc4C[C@H]2CN2CCCCC2)CN(C(=O)Cc2ccc(OCCN4CCN(C)CC4)cc2F)CC3)n1C [Example 160] ; wanted: its pKi
[reply] 9.74

[ask] # input compound: Cc1c(N(C(=O)c2cc(-c3cc4c(cc3C(=O)N3Cc5ccccc5C[C@H]3CN3CCCCC3)CN(C(=O)Cc3ccc(OCCN5CCOCC5)cc3)CC4)n(C)c2C)c2ccc(O)cc2)cc(C#N)n1C [Example 67] ; wanted: its pKi
[reply] 9.80

[ask] # input compound: Cc1c(N(C(=O)c2cc(-c3cc4c(cc3C(=O)N3Cc5ccccc5C[C@H]3C)CN(C(=O)Cc3cc(F)c(OCCN5CCOCC5)cc3F)CC4)n(C)c2C)c2ccc(O)cc2)cc(C#N)n1C [Example 69] ; wanted: its pKi
[reply] 9.30

[ask] # input compound: Cc1c(N(C(=O)c2cc(-c3cc4c(cc3C(=O)N3Cc5ccccc5C[C@H]3CN3CCCCCC3)CN(C(=O)Cc3ccc(OCCN5CCOCC5)cc3F)CC4)n(C)c2C)c2ccc(O)cc2)cc(C#N)n1C [Example 96] ; wanted: its pKi
[reply] 9.70

[ask] # input compound: Cc1c(C(=O)N(c2ccccc2)c2cnc3c(cnn3C)c2)cc(-c2cc3c(cc2C(=O)N2Cc4ccccc4C[C@H]2C)CN(C(=O)Cc2ccc(OCCN4CCOCC4)cc2F)CC3)n1C [Example 194] ; wanted: its pKi
[reply] 10.10

[ask] # input compound: Cc1c(N(C(=O)c2cc(-c3cc4c(cc3C(=O)N3Cc5ccccc5C[C@H]3CN3C[C@H]5C[C@H]5C3)CN(C(=O)Cc3ccc(OCCN5CCOCC5)cc3F)CC4)n(C)c2C)c2ccc(O)cc2)cc(C#N)n1C [Example 120] ; wanted: its pKi
[reply] 9.68

[ask] # input compound: Cc1c(C(=O)N(c2ccccc2)c2cc(C#N)n(C(F)F)c2C)cc(-c2cc3c(cc2C(=O)N2Cc4ccccc4C[C@H]2C)CN(C(=O)Cc2ccc(OCCN4CCOCC4)cc2)CC3)n1C [Example 214] ; wanted: its pKi
[reply] 9.92

[ask] # input compound: COC[C@@H]1Cc2ccccc2CN1C(=O)c1cc2c(cc1-c1cc(C(=O)N(c3ccc(O)cc3)c3cc(C#N)n(C(F)F)c3C)c(C)n1C)CCN(C(=O)Cc1ccc(OCCN3CCOCC3)cc1)C2 [Example 172] ; wanted: its pKi
[reply] 9.41

[ask] # input compound: Cc1c(N(C(=O)c2cc(-c3cc4c(cc3C(=O)N3Cc5ccccc5C[C@H]3CN3CCCCC3)CN(C(=O)Cc3ccc(OCCN5CCOCC5)cc3F)CC4)n(C)c2C)c2ccccc2)cc(C#N)n1C [Example 92] ; wanted: its pKi
[reply] 9.96

[ask] # input compound: COc1ncc(N(C(=O)c2cc(-c3cc4c(cc3C(=O)N3Cc5ccccc5C[C@H]3C)CN(C(=O)Cc3cccc(N5CC6(CN(C)C6)C5)c3)CC4)n(C)c2C)c2ccccc2)cc1F [Example 198] ; wanted: its pKi
[reply] 10.15

[ask] # input compound: Cc1c(N(C(=O)c2cc(-c3cc4c(cc3C(=O)N3Cc5ccccc5C[C@H]3CN3CCCCC3)CN(C(=O)Cc3ccc(OCC(C)N5CCOCC5)cc3)CC4)n(C)c2C)c2ccc(O)cc2)cc(C#N)n1C (single isomer, unassigned) [Example 127] ; wanted: its pKi
[reply] 9.80

[ask] # input compound: Cc1c(C(=O)N(c2ccccc2)c2cnn(C)c2)cc(-c2cc3c(cc2C(=O)N2Cc4ccccc4C[C@H]2C)CN(C(=O)Cc2ccc(OCCN4CCOCC4)cc2F)CC3)n1C [Example 197] ; wanted: its pKi
[reply] 10.30

[ask] # input compound: Cc1c(N(C(=O)c2cc(-c3cc4c(cc3C(=O)N3Cc5ccccc5C[C@H]3C)CN(C(=O)C3Cc5ccccc5O3)CC4)n(C)c2C)c2ccc(O)cc2)cc(C#N)n1C (stereo partly shown) [Example 20] ; wanted: its pKi
[reply] 9.17

[ask] # input compound: Cc1c(N(C(=O)c2cc(-c3cc4c(cc3C(=O)N3Cc5ccccc5C[C@H]3CN3CC5(CC5)C3)CN(C(=O)Cc3ccc(OCCN5CCOCC5)cc3F)CC4)n(C)c2C)c2ccc(O)cc2)cc(C#N)n1C [Example 145] ; wanted: its pKi
[reply] 9.96

[ask] # input compound: COCCn1cc(N(C(=O)c2cc(-c3cc4c(cc3C(=O)N3Cc5ccccc5C[C@H]3C)CN(C(=O)Cc3ccc(OCCN5CCOCC5)cc3)CC4)n(C)c2C)c2ccccc2)cn1 [Example 196] ; wanted: its pKi
[reply] 10.05

[ask] # input compound: Cc1c(N(C(=O)c2cc(-c3cc4c(cc3C(=O)N3Cc5ccccc5C[C@H]3C)CN(C(=O)Cc3ccc(OCCN5CCC(F)(F)C5)cc3)CC4)n(C)c2C)c2ccc(O)cc2)cc(C#N)n1C [Example 50] ; wanted: its pKi
[reply] 9.24

[ask] # input compound: Cc1c(N(C(=O)c2cc(-c3cc4c(cc3C(=O)N3Cc5ccccc5C[C@H]3CN3CCCCC3)CN(C(=O)Cc3ccc(OCCN(C)CCF)cc3F)CC4)n(C)c2C)c2ccc(O)cc2)cc(C#N)n1C [Example 134] ; wanted: its pKi
[reply] 9.74

====

- TESTED_ON: BCL2 WT (Homo sapiens (Human), UniProt P10415)
- PROCEDURE_SUMMARY: TR-FRET competitive binding assay, BCL2 WT
- TEST_CONDITIONS: Ki determined from IC50, read-out: TR_FRET EKI_Bcl2
READOUT_NAME: pKi
Expect pKi as a plain number equal to -log10 of the molar concentration.

[ask] Request - read-out pKi | tested on BCL2 WT (Homo sapiens (Human), UniProt P10415) | molecule `Cc1cc(OCCN2CCOCC2)c(F)cc1CC(=O)N1CCc2cc(-c3cc(C(=O)N(c4ccccc4)c4cnn(C)c4)c(C)n3C)c(C(=O)N3Cc4ccccc4C[C@H]3C)cc2C1`
[reply] 9.96

[ask] Request - read-out pKi | tested on BCL2 WT (Homo sapiens (Human), UniProt P10415) | molecule `Cc1c(N(C(=O)c2cc(-c3cc4c(cc3C(=O)N3Cc5ccccc5C[C@H]3C)CN(C(=O)Cc3ccc(OCCN5CCOCC5)cc3F)CC4)n(C)c2C)c2ccccc2)cc(C#N)n1C`
[reply] 10.07

[ask] Request - read-out pKi | tested on BCL2 WT (Homo sapiens (Human), UniProt P10415) | molecule `Cc1c(C(=O)N(c2ccccc2)c2cc(F)cc(C#N)c2)cc(-c2cc3c(cc2C(=O)N2Cc4ccccc4C[C@H]2C)CN(C(=O)Cc2ccc(OCCN4CCOCC4)cc2)CC3)n1C`
[reply] 9.59

[ask] Request - read-out pKi | tested on BCL2 WT (Homo sapiens (Human), UniProt P10415) | molecule `Cc1c(C(=O)N(c2ccccc2)c2cnn(C)c2)cc(-c2cc3c(cc2C(=O)N2Cc4ccccc4C[C@H]2C)CN(C(=O)Cc2ccc(OCCC4CCN(C)CC4)cc2)CC3)n1C`
[reply] 10.49

[ask] Request - read-out pKi | tested on BCL2 WT (Homo sapiens (Human), UniProt P10415) | molecule `Cc1c(C(=O)N(c2ccc(O)cc2)c2cnn(C(F)F)c2)cc(-c2cc3c(cc2C(=O)N2Cc4ccccc4C[C@H]2C)CN(C(=O)Cc2ccc(OCCN4CCOCC4)cc2)CC3)n1C`
[reply] 10.22
